meta.source: patent US20250353873A1

Would you mind telling me the reported APOE RNA (% control) Spinal Cord of each entry?
System: human APOE RNA
test_method_notes: Potency (dose response, ED50) in APOE C57BL/6NTac-Apoeem7250 knock-in mice, 4 weeks (Example 14)
Format: in vivo
condition_summary: spinal cord, ICV dose 30 μg
Strand notation (5' to 3'): a small letter for the sugar, then the base; units joined by * are phosphorothioate-linked, units joined directly phosphodiester-linked; [ ] holds rarer units or linkages, { } end groups; capitals alone tell only the bases. [ms] = mesyl phosphoramidate linkage; e = 2'-O-(2-methoxyethyl) (MOE); k = constrained ethyl (cEt); [5mC] = 5-methylcytosine; d = 2'-deoxy (DNA)

1778154: modified oligonucleotide complementary to human APOE RNA (e[5mC]*eT*eTeGeGeT*dG[ms]dA[ms]dA*dT*d[5mC]*dT*dT*dT*dA*dT*kTkAeA*eA; antisense) [compound 1778154]    137 % control
1785598: modified oligonucleotide complementary to human APOE RNA (k[5mC]*kT*kT*dG[ms]dG[ms]dT[ms]dG[ms]dA[ms]dA[ms]dT*d[5mC]*dT*dT*dT*dA*dT[ms]kT*kA*dA[ms]kA; antisense) [compound 1785598]    70 % control

Give me APOE RNA (% control) Spinal Cord for each of these substances, listed below.
1. Aes^mCeoTeoTesGesGksTdsGdzAdzAdzTds^mCdsTdsTdsTdsAdzTksTksAesAe (eA*e[5mC]eTeT*eG*kG*dT*dG[ms]dA[ms]dA[ms]dT*d[5mC]*dT*dT*dT*dA[ms]kT*kT*eA*eA) [Compound No. 1757576]
2. 1757575 (eA*e[5mC]eTeT*kG*kG*dT*dG[ms]dA[ms]dA[ms]dT*d[5mC]*dT*dT*dT*dA[ms]kT*eT*eA*eA; antisense) [Compound 1757575]

["55 % control", "48 % control"]

What measured APOE RNA (% control) Spinal Cord goes with 1746809 (k[5mC]*dT[ms]kT*dG[ms]kG*dT[ms]dG[ms]dA[ms]dA[ms]dT*d[5mC]*dT*dT*dT*dA[ms]dT*dT[ms]kA*kA*kA; antisense) [Compound 1746809] ?
92 % control

---

Tested on: human APOE RNA
test_method_notes: Dose-dependent inhibition of human APOE RNA in differentiated SH-SY5Y cells, free uptake, 5 days (Example 5)
Format: cell-based
condition_summary: 3,200 nM, 5 days (Table 14)
Strand notation (5' to 3'): a small letter for the sugar, then the base; units joined by * are phosphorothioate-linked, units joined directly phosphodiester-linked; [ ] holds rarer units or linkages, { } end groups; capitals alone tell only the bases. [ms] = mesyl phosphoramidate linkage; e = 2'-O-(2-methoxyethyl) (MOE); k = constrained ethyl (cEt); [5mC] = 5-methylcytosine; d = 2'-deoxy (DNA)
Would you mind telling me the reported APOE RNA (% UTC) of each entry?

// known answers, use as guide
1785598: modified oligonucleotide complementary to human APOE RNA (k[5mC]*kT*kT*dG[ms]dG[ms]dT[ms]dG[ms]dA[ms]dA[ms]dT*d[5mC]*dT*dT*dT*dA*dT[ms]kT*kA*dA[ms]kA; antisense) [compound 1785598]    23 % UTC
1778111: modified oligonucleotide complementary to human APOE RNA (eA*e[5mC]eTeTeG*kG*dT*dG[ms]dA[ms]dA*dT*d[5mC]*dT*dT*dT*dA[ms]eTeT*eA*eA; antisense) [compound 1778111]    43 % UTC
1778131: modified oligonucleotide complementary to human APOE RNA (eA*e[5mC]eTeTeGkG*dT*dG[ms]dA[ms]dA*dT*d[5mC]*dT*dT*dT*dA[ms]kTkT*eA*eA; antisense) [compound 1778131]    55 % UTC

Give me APOE RNA (% UTC) for each of these substances, listed below.
1. ^mCksTksTksGdzGdzTdzGdzAdzAdzTds^mCdsTdsTdsTdsAdsTdsTksAksAdzAk (antisense k[5mC]*kT*kT*dG[ms]dG[ms]dT[ms]dG[ms]dA[ms]dA[ms]dT*d[5mC]*dT*dT*dT*dA*dT*kT*kA*dA[ms]kA) [Compound No. 1785602]
2. 1785617: modified oligonucleotide complementary to human APOE RNA (k[5mC]*dT[ms]dT[ms]kG*dG[ms]kT*dG[ms]dA[ms]dA[ms]dT[ms]d[5mC]*dT*dT*dT*dA*dT*kT*kA*dA[ms]kA; antisense) [compound 1785617]
3. Aes^mCeoTeoTesGesGksTdsGdzAdzAdzTds^mCdsTdsTdsTdsAdzTksTksAesAe (eA*e[5mC]eTeT*eG*kG*dT*dG[ms]dA[ms]dA[ms]dT*d[5mC]*dT*dT*dT*dA[ms]kT*kT*eA*eA) [Compound No. 1757576]

19 % UTC
21 % UTC
23 % UTC
